Every entry's value here was drawn from paper PMC10467532.

Give IC50 for every item shown.
Tested on: FHC
Test: MTT cytotoxicity assay, normal FHC cells
Conditions: Homo sapiens, 48 h, read-out: IC50 FHC
One number for each entry, in µM.

# batch size: 7; output IC50 per entry
1. COc1cc2nccc(Oc3ccc(NC(=O)c4nc(-c5ccccc5)cs4)c(F)c3)c2cc1OC [Compound 51i]
2. O=C(Nc1ccc(Oc2ccnc(Cl)c2)c(F)c1)c1nc(-c2cccc(Cl)c2)cs1 [Compound 51ae]
3. COc1cc2nccc(Oc3ccc(NC(=O)c4nc(-c5ccccc5)cs4)c(C)c3)c2cc1OC [Compound 51m]
4. O=C(Nc1ccc(Oc2ccnc(Cl)c2)c(F)c1)c1nc(-c2ccc(F)c(Cl)c2)cs1 [Compound 51ak]
5. O=C(Nc1ccc(Oc2ncnc3ccsc23)c(F)c1)c1nc(-c2ccccc2)cs1 [Compound 51s]
6. COc1cc2ncnc(Oc3ccc(NC(=O)c4nc(-c5ccc(F)cc5)cs4)cc3F)c2cc1OC [Compound 51p]
7. O=C(Nc1ccc(Oc2ccnc(Cl)c2)c(F)c1)c1nc(-c2ccc(Cl)c(Cl)c2)cs1 [Compound 51ah]

1: 60.2; 2: 24.5; 3: 49.6; 4: 13.2; 5: 65.5; 6: 46.4; 7: 20.4
